Assay: Inhibition of sheep gastric H(+)/K(+)-ATPase-mediated inorganic phosphate liberation after 15 mins by Fiske Subbarow method in presence of ATP
Type: tissue-based, Ovis aries, Stomach
Conditions: read-out: IC50
metric-name: pIC50
One number for each entry, as −log10 of the molar value.

Recorded pIC50, per entry:
Exercise: Please report the measured pIC50 for COc1ccc(NC(=S)NC(CCC(=O)N2CCN(c3nsc4ccccc34)CC2)C(=O)N2CCN(c3nsc4ccccc34)CC2)cc1 (stereo not drawn)
Solution: 5.27

Exercise: Please report the measured pIC50 for O=C(Nc1ccc(Cl)cc1)NC(CCC(=O)N1CCN(c2nsc3ccccc23)CC1)C(=O)N1CCN(c2nsc3ccccc23)CC1 (stereo not drawn)
Solution: 4.28

Continue with the next molecule.
Exercise: Please report the measured pIC50 for O=C(Nc1cccc(Cl)c1)NC(CCC(=O)N1CCN(c2nsc3ccccc23)CC1)C(=O)N1CCN(c2nsc3ccccc23)CC1 (stereo not drawn)
Solution: 4.25

Data origin, for the record: ChEMBL document CHEMBL2401633
